Task for the reader: assign each of the following compounds its reported MIC.
Test system: E. coli ATCC BAA2469 (NDM-1 carbapenem-resistant)
Assay: MIC broth microdilution, E. coli ATCC BAA2469
Format: cell-based, Escherichia coli
Settings: Escherichia coli, ATCCBAA2469, MDR; overnight incubation

Query :: Write down measured MIC (E. coli ATCC BAA2469 (NDM-1 carbapenem-resistant)) for this compound. FC(F)(F)c1ccc(N/N=C2\C=C[C@@]3(CC2)CC[C@@H]2NCCc4c2n3c2ccccc42)cc1 (racemic) [Compound 1e]
Result :: 6.25 to 12.5 µg/mL

Query :: Write down measured MIC (E. coli ATCC BAA2469 (NDM-1 carbapenem-resistant)) for this compound. Oc1ccc2c(c1)c1c3n2[C@@]2(C=C/C(=N\Nc4ccc(C(F)(F)F)cc4)CC2)CC[C@@H]3NCC1 [Compound 1i]
Result :: 6.25 to 12.5 µg/mL

Query :: Write down measured MIC (E. coli ATCC BAA2469 (NDM-1 carbapenem-resistant)) for this compound. Fc1ccc2c3c4n(c2c1)[C@@]1(C=C/C(=N\Nc2ccc(C(F)(F)F)cc2)CC1)CC[C@@H]4NCC3 [Compound 1g]
Result :: 6.25 to 12.5 µg/mL

Query :: Write down measured MIC (E. coli ATCC BAA2469 (NDM-1 carbapenem-resistant)) for this compound. Cc1ccc2c(c1)c1c3n2[C@@]2(C=C/C(=N\Nc4ccc(C(F)(F)F)cc4)CC2)CC[C@@H]3NCC1 [Compound 1h]
Result :: 6.25 to 12.5 µg/mL

Query :: Write down measured MIC (E. coli ATCC BAA2469 (NDM-1 carbapenem-resistant)) for this compound. NCC[C@H](O)C(=O)N[C@@H]1C[C@H](N)[C@@H](O[C@H]2O[C@H](CN)[C@@H](O)[C@H](O)[C@H]2O)[C@H](O)[C@H]1O[C@H]1O[C@H](CO)[C@@H](O)[C@H](N)[C@H]1O [Amikacin, reference compound]
Result :: > 1000 µg/mL
